Attribute: log10 GI50
Tested on: NCI-H1048 cells
Experiment: MTT proliferation assay, NCI-H1048;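 further: Dose-response in 96-well plates over 8 or 10 concentration points, with exposure spanning 3-4 cell doublings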
Format: cell-based
Conditions: 5 days compound exposure, 1:3 serial dilution starting at 10 μM
*1 amine or outer side, *2 acyl side, *3 side chain or, on linkers, in order; H or OH if unused. Where a SMILES comes first, the peptide text is derived from it. Bridges are numbered along the chain shown (N, C = ends). [ ]: non-standard residue; d: D form. The star is where a group is joined. NMePhe(2-(4-MorPh),5-Cl) = CN[C@@H](Cc1cc(Cl)ccc1-c1ccc(N2CCOCC2)cc1)C(=O)O; X23 = CCN([C@@H](Cc1cc(Cl)ccc1-c1ccc(N2CCN(C)CC2)cc1)C(=O)[*:2])[*:1]; X137 = CN([C@@H](Cc1cc(F)ccc1-c1cnn(S(C)(=O)=O)c1)C(=O)[*:2])[*:1]; X69 = CCOC(=O)N1CC=C(c2ccc(Cl)cc2C[C@@H](C(=O)[*:2])N(C)[*:1])CC1; X87 = CN([C@@H](Cc1cc(F)ccc1-c1ccc(N2CCOCC2)cc1)C(=O)[*:2])[*:1]; NMehhhLys(Me) = CN([C@@H](CCCCCCCN(C)[*:3])C(=O)[*:2])[*:1]; X22 = CN([C@@H](Cc1cc(Cl)ccc1-c1cnn(C)c1)C(=O)[*:2])[*:1]; X176 = CN([C@@H](Cc1cc(F)ccc1-c1cccnc1)C(=O)[*:2])[*:1]; NMe(hhhLys) = CN([C@@H](CCCCCCCN[*:3])C(=O)[*:2])[*:1]; cBuCO(3,3-F2-1-CF3) = O=C(C1(C(F)(F)F)CC(F)(F)C1)*; Pro(trans-4-F) = O=C(O)[C@@H]1C[C@@H](F)CN1; Pivaloyl(3,3,3-F3) = CC(C)(C(=O)*)C(F)(F)F; Pro(4,4-F2) = O=C(O)[C@@H]1CC(F)(F)CN1; Gly(cPr) = N[C@H](C(=O)O)C1CC1
ENDPOINT: log10 GI50 (log10 of the value in nM)

{"MOLECULE": "CCOC(=O)N1CC=C(c2ccc(Cl)cc2C[C@H]2C(=O)N(C)CCCCCCC[C@H](N(C)C(=O)[C@@H](NC(=O)[C@@H]3C[C@@H](F)CN3C(=O)C3(C(F)(F)F)CC(F)(F)C3)C3CC3)C(=O)N[C@@H](CC(C)C)C(=O)N2C)CC1 [Example 145] ({cBuCO(3,3-F2-1-CF3)}-[Pro(trans-4-F)][Gly(cPr)][NMehhhLys(Me)]L[X69]; lactam 3-C)", "ENDPOINT": "log10 GI50", "REPORTED RESULT": 1.85}
{"MOLECULE": "CC(C)C[C@@H]1NC(=O)[C@@H](N(C)C(=O)[C@@H](NC(=O)[C@@H]2C[C@@H](F)CN2C(=O)C2(C(F)(F)F)CCC2)C2CC2)CC=CCCCCN(C)C(=O)[C@H](Cc2cc(F)ccc2-c2cnn(CC(F)F)c2)N(C)C1=O [Example 83]", "ENDPOINT": "log10 GI50", "REPORTED RESULT": 1.30}
{"MOLECULE": "CCN1C(=O)[C@H](CC(C)C)NC(=O)[C@@H](N(C)C(=O)[C@@H](NC(=O)[C@@H]2C[C@@H](F)CN2C(=O)C2(C(F)(F)F)CC(F)(F)C2)C2CC2)CCCCCCCN(C)C(=O)[C@@H]1Cc1cc(Cl)ccc1-c1ccc(N2CCN(C)CC2)cc1 [Example 405] ({cBuCO(3,3-F2-1-CF3)}-[Pro(trans-4-F)][Gly(cPr)][NMehhhLys(Me)]L[X23]; lactam 3-C)", "ENDPOINT": "log10 GI50", "REPORTED RESULT": 1.60}
{"MOLECULE": "CC(C)C[C@@H]1NC(=O)[C@@H](N(C)C(=O)[C@@H](NC(=O)[C@@H]2C[C@@H](F)CN2C(=O)C2(C(F)(F)F)CC(F)(F)C2)C2CC2)CCCCCCCNC(=O)[C@H](Cc2cc(Cl)ccc2-c2cnn(C)c2)N(C)C1=O [Example 66] ({cBuCO(3,3-F2-1-CF3)}-[Pro(trans-4-F)][Gly(cPr)][NMe(hhhLys)]L[X22]; lactam 3-C)", "ENDPOINT": "log10 GI50", "REPORTED RESULT": 1.00}
{"MOLECULE": "CC(C)C[C@@H]1NC(=O)[C@@H](N(C)C(=O)[C@@H](NC(=O)[C@@H]2C[C@@H](F)CN2C(=O)C2(C(F)(F)F)CC(F)(F)C2)C2CC2)CC=CCCCCN(C)C(=O)[C@H](Cc2cc(F)ccc2-c2cncnc2)N(C)C1=O [Example 38]", "ENDPOINT": "log10 GI50", "REPORTED RESULT": 1.78}
{"MOLECULE": "CC(C)C[C@@H]1NC(=O)[C@@H](N(C)C(=O)[C@@H](NC(=O)[C@@H]2C[C@@H](F)CN2C(=O)C2(C(F)(F)F)CC(F)(F)C2)C2CC2)CCCCCCCN(C)C(=O)[C@H](Cc2cc(Cl)ccc2-c2ccc(N3CCOCC3)cc2)N(C)C1=O [Example 261] ({cBuCO(3,3-F2-1-CF3)}-[Pro(trans-4-F)][Gly(cPr)][NMehhhLys(Me)]L[NMePhe(2-(4-MorPh),5-Cl)]; lactam 3-C)", "ENDPOINT": "log10 GI50", "REPORTED RESULT": 1.00}
{"MOLECULE": "CC(C)C[C@@H]1NC(=O)[C@@H](N(C)C(=O)[C@@H](NC(=O)[C@@H]2C[C@@H](F)CN2C(=O)C2(C(F)(F)F)CCC2)C2CC2)CC=CCCCCN(C)C(=O)[C@H](Cc2cc(Cl)ccc2-c2cncnc2)N(C)C1=O [Example 35]", "ENDPOINT": "log10 GI50", "REPORTED RESULT": 2.23}
{"MOLECULE": "CC(C)C[C@@H]1NC(=O)[C@@H](N(C)C(=O)[C@@H](NC(=O)[C@@H]2C[C@@H](F)CN2C(=O)C2(C(F)(F)F)CC(F)(F)C2)C2CC2)CCCCCCCNC(=O)[C@H](Cc2cc(F)ccc2-c2cccnc2)N(C)C1=O [Example 280] ({cBuCO(3,3-F2-1-CF3)}-[Pro(trans-4-F)][Gly(cPr)][NMe(hhhLys)]L[X176]; lactam 3-C)", "ENDPOINT": "log10 GI50", "REPORTED RESULT": 1.00}
{"MOLECULE": "[2H]C([2H])([2H])n1cc(-c2ccc(Cl)cc2C[C@H]2C(=O)N(C)CCCCCCC[C@H](N(C)C(=O)[C@@H](NC(=O)[C@@H]3C[C@@H](F)CN3C(=O)C3(C(F)(F)F)CC(F)(F)C3)C3CC3)C(=O)N[C@@H](CC(C)C)C(=O)N2C)cn1 [Example 239]", "ENDPOINT": "log10 GI50", "REPORTED RESULT": 1.30}
{"MOLECULE": "CC(C)C[C@@H]1NC(=O)[C@@H](N(C)C(=O)[C@@H](NC(=O)[C@@H]2C[C@@H](F)CN2C(=O)C2(C(F)(F)F)CC(F)(F)C2)C2CC2)CCCCCCCNC(=O)[C@H](Cc2cc(F)ccc2-c2ccc(N3CCOCC3)cc2)N(C)C1=O [Example 334] ({cBuCO(3,3-F2-1-CF3)}-[Pro(trans-4-F)][Gly(cPr)][NMe(hhhLys)]L[X87]; lactam 3-C)", "ENDPOINT": "log10 GI50", "REPORTED RESULT": 1.00}
{"MOLECULE": "CC(C)C[C@@H]1NC(=O)[C@@H](N(C)C(=O)[C@@H](NC(=O)[C@@H]2CC(F)(F)CN2C(=O)C2(C(F)(F)F)CC(F)(F)C2)C2CC2)CCCCCCCN(C)C(=O)[C@H](Cc2cc(Cl)ccc2-c2cnn(C)c2)N(C)C1=O [Example 343] ({cBuCO(3,3-F2-1-CF3)}-[Pro(4,4-F2)][Gly(cPr)][NMehhhLys(Me)]L[X22]; lactam 3-C)", "ENDPOINT": "log10 GI50", "REPORTED RESULT": 1.00}
{"MOLECULE": "CC(C)C[C@@H]1NC(=O)[C@@H](N(C)C(=O)[C@@H](NC(=O)[C@@H]2C[C@@H](F)CN2C(=O)C(C)(C)C(F)(F)F)C2CC2)CCCCCCCN(C)C(=O)[C@H](Cc2cc(F)ccc2-c2cnn(S(C)(=O)=O)c2)N(C)C1=O [Example 304] ({Pivaloyl(3,3,3-F3)}-[Pro(trans-4-F)][Gly(cPr)][NMehhhLys(Me)]L[X137]; lactam 3-C)", "ENDPOINT": "log10 GI50", "REPORTED RESULT": 1.00}
